Measured on: Integrin αvβ5 (Homo sapiens, UniProt P06756+P18084)
Construct: purchased Chemicon International, Inc
Sequence (P06756 31-889 limits assumed): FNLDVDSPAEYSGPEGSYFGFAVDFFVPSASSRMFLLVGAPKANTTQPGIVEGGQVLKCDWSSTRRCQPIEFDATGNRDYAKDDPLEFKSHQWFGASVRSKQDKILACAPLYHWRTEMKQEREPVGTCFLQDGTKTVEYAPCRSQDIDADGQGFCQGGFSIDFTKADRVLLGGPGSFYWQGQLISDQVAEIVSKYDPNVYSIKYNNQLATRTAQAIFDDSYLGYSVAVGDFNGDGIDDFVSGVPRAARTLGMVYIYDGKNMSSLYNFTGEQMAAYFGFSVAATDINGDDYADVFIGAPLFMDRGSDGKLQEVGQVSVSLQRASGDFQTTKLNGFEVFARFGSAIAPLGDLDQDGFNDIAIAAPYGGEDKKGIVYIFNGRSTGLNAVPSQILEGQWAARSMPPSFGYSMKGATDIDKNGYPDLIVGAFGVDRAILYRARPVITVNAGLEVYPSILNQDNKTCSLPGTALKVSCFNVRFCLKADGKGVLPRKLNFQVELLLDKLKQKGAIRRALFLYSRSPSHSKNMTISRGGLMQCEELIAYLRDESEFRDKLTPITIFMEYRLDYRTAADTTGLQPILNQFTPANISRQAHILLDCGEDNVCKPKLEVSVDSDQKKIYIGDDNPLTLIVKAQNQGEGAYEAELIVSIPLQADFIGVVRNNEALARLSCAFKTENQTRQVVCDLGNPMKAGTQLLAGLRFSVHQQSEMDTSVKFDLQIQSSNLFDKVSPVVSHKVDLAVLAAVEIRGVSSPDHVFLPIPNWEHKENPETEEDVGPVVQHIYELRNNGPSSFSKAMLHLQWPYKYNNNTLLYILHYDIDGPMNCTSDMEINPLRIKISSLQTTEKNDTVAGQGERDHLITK
Sequence (P06756 891-1048 partner limits assumed): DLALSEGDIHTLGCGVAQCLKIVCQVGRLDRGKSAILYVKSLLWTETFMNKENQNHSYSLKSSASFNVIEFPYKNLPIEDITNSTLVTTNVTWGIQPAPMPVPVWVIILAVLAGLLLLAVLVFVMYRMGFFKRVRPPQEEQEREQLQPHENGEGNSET
Sequence (P18084 24-799): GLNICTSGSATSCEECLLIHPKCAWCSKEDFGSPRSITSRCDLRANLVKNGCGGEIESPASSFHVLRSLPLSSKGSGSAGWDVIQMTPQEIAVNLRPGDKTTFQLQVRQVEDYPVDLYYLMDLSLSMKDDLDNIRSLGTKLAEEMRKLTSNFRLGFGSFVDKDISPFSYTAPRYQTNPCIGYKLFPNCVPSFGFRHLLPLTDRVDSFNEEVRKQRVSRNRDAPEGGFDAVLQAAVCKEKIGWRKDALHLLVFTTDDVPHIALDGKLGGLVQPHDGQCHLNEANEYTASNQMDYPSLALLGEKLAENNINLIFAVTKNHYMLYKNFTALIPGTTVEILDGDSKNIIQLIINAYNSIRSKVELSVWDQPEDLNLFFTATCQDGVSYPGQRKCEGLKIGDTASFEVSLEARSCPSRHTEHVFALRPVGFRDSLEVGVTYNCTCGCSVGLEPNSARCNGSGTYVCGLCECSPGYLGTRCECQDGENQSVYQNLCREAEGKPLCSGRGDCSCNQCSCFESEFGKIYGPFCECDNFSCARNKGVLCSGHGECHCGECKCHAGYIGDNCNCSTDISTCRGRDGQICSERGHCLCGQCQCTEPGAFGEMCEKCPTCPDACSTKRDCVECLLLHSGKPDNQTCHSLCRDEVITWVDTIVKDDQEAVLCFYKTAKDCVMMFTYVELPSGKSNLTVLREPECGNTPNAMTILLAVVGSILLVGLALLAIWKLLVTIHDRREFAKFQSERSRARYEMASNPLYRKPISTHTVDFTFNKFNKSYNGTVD
Protocol details: Integrin αvβ5 binding affinity test
Condition notes: inhibition of biotinylated vitronectin binding to immobilized αvβ5; read-out: IC50 value αvβ5
Give IC50 for every item shown.

Example entries and their recorded answers appear below.
[
  {
    "Compound": "Cc1cc(OCCCC(=O)NCCNC(=O)[C@H](CS(=O)(=O)O)NC(=O)CCC(NC(=O)CN2CCN(CC(=O)O)CCN(CC(=O)O)CCN(CC(=O)O)CC2)C(=O)N[C@@H](CS(=O)(=O)O)C(=O)NCCNC(=O)CCCOc2cc(C)c(S(=O)(=O)N[C@@H](CNC(=O)c3ccc(CCc4ccc5c(n4)NCCC5)cc3)C(=O)O)c(C)c2)cc(C)c1S(=O)(=O)N[C@@H](CNC(=O)c1ccc(CCc2ccc3c(n2)NCCC3)cc1)C(=O)O (stereo partly drawn) [Compound H9]",
    "IC50": "< 1 nM"
  },
  {
    "Compound": "O=C(O)CN1CCN(CC(=O)O)CCN(CC(=O)N[C@@H](CS(=O)(=O)O)C(=O)N[C@@H](CS(=O)(=O)O)C(=O)NCCNC(=O)CCCOc2ccc(S(=O)(=O)N[C@@H](CNC(=O)c3ccc(CCc4ccc5c(n4)NCCC5)cc3)C(=O)O)cc2)CCN(CC(=O)O)CC1 [Compound Y13]",
    "IC50": "< 1 nM"
  }
]

The record that follows has no IC50 shown yet.
QUERY: What value of IC50 has been reported for the following compound? Cc1cc(OCCCC(=O)NCCNC(=O)[C@H](CS(=O)(=O)O)NC(=O)CN2CCN(CC(=O)O)CCN(CC(=O)O)CCN(CC(=O)O)CC2)cc(C)c1S(=O)(=O)N[C@@H](CNC(=O)CCCCCc1ccc2c(n1)NCCC2)C(=O)O [Compound W10]
RESULT: 1 to 10 nM

###

Measured on: Integrin αvβ5 (Homo sapiens, UniProt P06756+P18084)
Construct: purchased Chemicon International, Inc
Protocol details: Integrin αvβ5 binding affinity test
Condition notes: inhibition of biotinylated vitronectin binding to immobilized αvβ5; read-out: IC50 value αvβ5
Give IC50 for every item shown.

Example entries and their recorded answers appear below.
[
  {
    "Compound": "Cc1cc(OCCCC(=O)NCCNC(=O)[C@H](CS(=O)(=O)O)NC(=O)[C@H](CS(=O)(=O)O)NC(=O)CN2CCN(CC(=O)O)CCN(CC(=O)O)CCN(CC(=O)O)CC2)cc(C)c1S(=O)(=O)N[C@@H](CNC(=O)c1ccc(CCc2cccc(N)n2)cc1)C(=O)O",
    "IC50": "< 1 nM"
  },
  {
    "Compound": "Cc1cc(OCCCC(=O)NCCNC(=O)[C@H](CS(=O)(=O)O)NC(=O)[C@H](CS(=O)(=O)O)NC(=O)CN2CCN(CC(=O)O)CCN(CC(=O)O)CCN(CC(=O)O)CC2)cc(C)c1S(=O)(=O)N[C@@H](CNC(=O)c1ccc(CCc2ccc3c(n2)NCCC3)s1)C(=O)O",
    "IC50": "1 to 10 nM"
  }
]

Batch of 3 compounds: report IC50 for each.
1. Cc1cc(OCCCC(=O)NCCNC(=O)[C@H](CS(=O)(=O)O)NC(=O)CCC(C(=O)O)N2CCCN3CCN(CCCN(CC(=O)O)CC3)CC2)cc(C)c1S(=O)(=O)N[C@@H](CNC(=O)CCCCc1ccc2c(n1)NCCC2)C(=O)O (single isomer, unassigned) [Ab9-a]
2. Cc1cc(OCCCC(=O)NCCNC(=O)[C@H](CS(=O)(=O)O)NC(=O)[C@H](CS(=O)(=O)O)NC(=O)CN2CCN(CC(=O)O)CCN(CC(=O)O)CCN(CC(=O)O)CC2)cc(C)c1S(=O)(=O)N[C@@H](CNC(=O)CCCCc1ccc2c(n1)NCCC2)C(=O)O
3. Cc1cc(OCCCC(=O)NCCNC(=O)COCCOCCNC(=O)COCCOCCNC(=O)CN2CCN(CC(=O)O)CCN(CC(=O)O)CCN(CC(=O)O)CC2)cc(C)c1S(=O)(=O)N[C@@H](CNC(=O)c1ccc(CCc2ccc3c(n2)NCCC3)cc1)C(=O)O

RESULT:
< 1 nM
< 1 nM
< 1 nM

Batch of 3 compounds: report IC50 for each.
1. Cc1cc(OCCCC(=O)NCCNC(=O)[C@H](CS(=O)(=O)O)NC(=O)CCC(C(=O)O)N2CCCN3CCN(CCCN(CC(=O)O)CC3)CC2)cc(C)c1S(=O)(=O)N[C@@H](CNC(=O)CCCCc1ccc2c(n1)NCCC2)C(=O)O (single isomer, unassigned) [Ab9-b]
2. Cc1cc(OCCCC(=O)NCCNC(=O)[C@H](CS(=O)(=O)O)NC(=O)CN2CCN(CC(=O)O)CCN(CC(=O)O)CCN(CC(=O)O)CC2)cc(C)c1S(=O)(=O)N[C@@H](CNC(=O)c1ccc(CCc2ccc3c(n2)NCCC3)cc1)C(=O)O
3. Cc1cc(OCCCC(=O)NCCNC(=O)[C@H](CS(=O)(=O)O)NC(=O)CN2CCN(CC(=O)O)CCN(CC(=O)O)CCN(CC(=O)O)CC2)cc(C)c1S(=O)(=O)N[C@H](CNC(=O)CCCCc1ccc2c(n1)NCCC2)C(=O)O

RESULT:
["< 1 nM", "< 1 nM", "1 to 10 nM"]

###

Measured on: Integrin αvβ5 (Homo sapiens, UniProt P06756+P18084)
Construct: purchased Chemicon International, Inc
Protocol details: Integrin αvβ5 binding affinity test
Condition notes: inhibition of biotinylated vitronectin binding to immobilized αvβ5; read-out: IC50 value αvβ5
Give IC50 for every item shown.

[
  {
    "Compound": "Cc1cc(OCCCC(=O)NCCNC(=O)[C@H](CS(=O)(=O)O)NC(=O)CC[C@H](C(=O)O)N2CCN(CC(=O)O)CCN(CC(=O)O)CC2)cc(C)c1S(=O)(=O)N[C@@H](CNC(=O)CCCCc1ccc2c(n1)NCCC2)C(=O)O",
    "IC50": "< 1 nM"
  }
]

Batch of 3 compounds: report IC50 for each.
1. Cc1cc(OCCCC(=O)NCCNC(=O)[C@H](CS(=O)(=O)O)NC(=O)CN2CCN(CC(=O)O)CCN(CC(=O)O)CCN(CC(=O)O)CC2)cc(C)c1S(=O)(=O)N[C@@H](CNC(=O)CCCCc1ccc2c(n1)NCCC2)C(=O)O [Compound P2]
2. Cc1cc(OCCCC(=O)NCCNC(=O)CN2CCN(CC(=O)O)CCN(CC(=O)O)CCN(CC(=O)O)CC2)cc(C)c1S(=O)(=O)N[C@@H](CNC(=O)c1ccc(CCc2ccc3c(n2)NCCC3)cc1)C(=O)O
3. Cc1cc(OCCCC(=O)NCCNC(=O)[C@H](CS(=O)(=O)O)NC(=O)[C@H](CS(=O)(=O)O)NC(=O)CN2CCN(CC(=O)O)CCN(CC(=O)O)CCN(CC(=O)O)CC2)cc(C)c1S(=O)(=O)N[C@@H](CNC(=O)c1ccc(CCc2ccc3c(n2)NCCC3)cc1)C(=O)O

RESULT:
1. < 1 nM
2. < 1 nM
3. < 1 nM

Batch of 4 compounds: report IC50 for each.
1. O=C(O)CC(c1cncc(OCCCC(=O)NCCNC(=O)[C@H](CS(=O)(=O)O)NC(=O)[C@H](CS(=O)(=O)O)NC(=O)CN2CCN(CC(=O)O)CCN(CC(=O)O)CCN(CC(=O)O)CC2)c1)n1ccc2c(CCc3ccc4c(n3)NCCC4)cccc21 (some centres unmarked)
2. Cc1cc(OCCCC(=O)NCCNC(=O)[C@H](CS(=O)(=O)O)NC(=O)CN2CCN(CC(=O)O)CCN(CC(=O)O)CCN(CC(=O)O)CC2)cc(C)c1S(=O)(=O)N[C@@H](CNC(=O)c1ccc(CCc2cccc(N)n2)cc1)C(=O)O
3. Cc1cc(OCCCC(=O)NCCNC(=O)COCCOCCNC(=O)CN2CCN(CC(=O)O)CCN(CC(=O)O)CCN(CC(=O)O)CC2)cc(C)c1S(=O)(=O)N[C@@H](CNC(=O)c1ccc(CCc2ccc3c(n2)NCCC3)cc1)C(=O)O
4. Cc1cc(OCCCC(=O)NCCNC(=O)[C@H](CS(=O)(=O)O)NC(=O)[C@H](CS(=O)(=O)O)NC(=S)Nc2ccc(C[C@@H](CN(CC(=O)O)CC(C)N(CC(=O)O)CC(=O)O)N(CC(=O)O)CC(=O)O)cc2)cc(C)c1S(=O)(=O)N[C@@H](CNC(=O)c1ccc(CCc2ccc3c(n2)NCCC3)cc1)C(=O)O (some centres unmarked)

RESULT:
1: 1 to 10 nM; 2: < 1 nM; 3: < 1 nM; 4: < 1 nM

These data points were gathered from patent US11426473B2.
